- TEST NAME: Inhibition of Influenza A virus sialidase N2
Kindly state IC50 for each of the entries shown.
Answers are plain numbers, in nM.

Input CCC(CC)O[C@@H]1OC(C(=O)O)=C[C@H](N)[C@H]1NC(C)=O . Output IC50: 770

// IC50 lookup, molecule = CC(=O)N[C@H]1[C@H]([C@H](O)[C@H](O)CO)OC(C(=O)O)=C[C@@H]1O [NEU5AC2EN] , result: 1700

Data point: CCC(CC)O[C@@H]1C=C(C(=O)O)C[C@H](O)[C@H]1NC(C)=O ; IC50 = 15

Others:
So for CC(=O)N[C@H]1[C@H]([C@H](O)[C@H](O)CO)OC(C(=O)O)=C[C@@H]1NC(=N)N [ZANAMIVIR] , the logged IC50 turned out to be 5
